- PROTOCOL: Stability of compound in PBS buffer incubated for 1 week at 37 degC
- Type: physicochemical
- CONDITIONS: time 1 weeks, read-out: Stability
QUANTITY_NAME: remaining at 168 h (%)

| SMILES_INPUT | QUANTITY_NAME | ENDPOINT_UNIT | OBSERVED_VALUE |
| --- | --- | --- | --- |
| CCCSc1nc(N/N=C/c2cccc(O)c2)c2nnn([C@@H]3C[C@H](O)[C@@H](O)[C@H]3O)c2n1 | remaining at 168 h | % | 98.3 |

----------
- PROTOCOL: Stability in mouse liver microsomes measured after 2 hrs
- Assay type: ADME, Microsome
- CONDITIONS: read-out: Stability

| SMILES_INPUT | remaining at 2 h, % |
| --- | --- |
| CCCSc1nc(N/N=C/c2cccc(O)c2)c2nnn([C@@H]3C[C@H](O)[C@@H](O)[C@H]3O)c2n1 | 73.7 |

----------
- PROTOCOL: Antiplatelet activity against ADP-induced human platelet in platelet rich plasma assessed as inhibition of platelet aggregation at 10 uM preincubated for 2 mins followed by ADP stimulation and measured for 5 mins by aggregometry relative to control
- Type: functional
- CONDITIONS: 7 min
This section presents compounds with their documented inhibition at 10 µM values.

| SMILES_INPUT | inhibition at 10 µM, % |
| --- | --- |
| CCCSc1nc(N/N=C/c2ccccc2)c2nnn([C@@H]3C[C@H](O)[C@@H](O)[C@H]3O)c2n1 | 100 |
| CCCSc1nc(NCCc2ccccc2)c2nnn([C@@H]3C[C@H](O)[C@@H](O)[C@H]3O)c2n1 | 33.4 |
| CCCSc1nc(NC2CC2)c2nnn([C@@H]3C[C@H](OCCO)[C@@H](O)[C@H]3O)c2n1 | 14.8 |
| CCCSc1nc(N/N=C/c2ccccc2OC)c2nnn([C@@H]3C[C@H](O)[C@@H](O)[C@H]3O)c2n1 | 48.7 |
| CCCCNc1nc(SCCC)nc2c1nnn2[C@@H]1C[C@H](O)[C@@H](O)[C@H]1O | 85.4 |

----------
- PROTOCOL: Antiplatelet activity against ADP-induced human platelet in platelet rich plasma assessed as inhibition of platelet aggregation at 10 uM preincubated for 2 mins followed by ADP stimulation and measured for 5 mins by aggregometry relative to control
- Format: functional
- CONDITIONS: 7 min
Examples of molecules with documented inhibition at 10 µM follow.

| SMILES_INPUT | inhibition at 10 µM, % |
| --- | --- |
| CCCSc1nc(NCCCO)c2nnn([C@@H]3C[C@H](OCCO)[C@@H](O)[C@H]3O)c2n1 | 13.9 |
| CCCSc1nc(N/N=C/c2ccc(OC)cc2)c2nnn([C@@H]3C[C@H](O)[C@@H](O)[C@H]3O)c2n1 | 81.5 |
| CCCCNc1nc(SCCC)nc2c1nnn2[C@@H]1C[C@H](OCCO)[C@@H](O)[C@H]1O | 40.8 |
| CCCSc1nc(N/N=C/c2cccc(O)c2)c2nnn([C@@H]3C[C@H](O)[C@@H](O)[C@H]3O)c2n1 | 100 |
| CCCSc1nc(NCCc2ccc(O)cc2)c2nnn([C@@H]3C[C@H](O)[C@@H](O)[C@H]3O)c2n1 | 76.8 |
| CCCSc1nc(NC2CCCC2)c2nnn([C@@H]3C[C@H](OCCO)[C@@H](O)[C@H]3O)c2n1 | 8.1 |
| CCCSc1nc(N/N=C/c2ccc(F)c(F)c2)c2nnn([C@@H]3C[C@H](OCCO)[C@@H](O)[C@H]3O)c2n1 | 85.4 |
| CCCSc1nc(NCCCO)c2nnn([C@@H]3C[C@H](O)[C@@H](O)[C@H]3O)c2n1 | 70.3 |
